Overview of recorded IC50 for various compounds
biological target: trkA tyrosine kinase (Homo sapiens); experiment: trkA Tyrosine Kinase Activity Inhibition Assay (ELISA); assay type: biochemical; settings: 16 μM ATP, 37° C., 15 min; read-out: INHIBITION OF trkA KINASE IC50
Sequence (P04629 33-796): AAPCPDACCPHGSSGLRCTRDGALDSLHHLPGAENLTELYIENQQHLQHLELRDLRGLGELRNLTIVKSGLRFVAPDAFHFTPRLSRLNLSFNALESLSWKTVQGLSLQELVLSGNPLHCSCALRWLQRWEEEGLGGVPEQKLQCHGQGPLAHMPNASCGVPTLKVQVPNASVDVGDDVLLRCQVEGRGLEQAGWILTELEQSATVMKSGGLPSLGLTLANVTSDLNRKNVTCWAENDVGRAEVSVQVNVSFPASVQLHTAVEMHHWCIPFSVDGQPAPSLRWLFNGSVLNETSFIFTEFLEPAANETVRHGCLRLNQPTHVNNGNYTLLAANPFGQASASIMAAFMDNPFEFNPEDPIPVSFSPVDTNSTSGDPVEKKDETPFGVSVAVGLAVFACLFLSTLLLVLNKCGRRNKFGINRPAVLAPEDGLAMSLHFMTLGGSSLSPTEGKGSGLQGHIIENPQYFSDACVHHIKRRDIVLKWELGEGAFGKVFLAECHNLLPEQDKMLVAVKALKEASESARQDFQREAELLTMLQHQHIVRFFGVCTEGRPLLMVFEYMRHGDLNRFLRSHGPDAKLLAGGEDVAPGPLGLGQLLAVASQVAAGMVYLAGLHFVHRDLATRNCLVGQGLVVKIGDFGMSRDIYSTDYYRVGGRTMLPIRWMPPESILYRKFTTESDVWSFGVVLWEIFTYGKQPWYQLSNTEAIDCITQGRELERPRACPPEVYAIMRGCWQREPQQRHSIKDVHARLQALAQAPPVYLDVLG
# output: bare number, implied unit nM

# count of solved cases: 3
smiles_structure=O=C1NCc2c1c1c(c3[nH]c4ccccc4c23)CCc2ccccc2-1 obs_value=66
smiles_structure=O=C1NCc2c1c1c(c3[nH]c4ccc(F)cc4c23)Cc2ccccc2-1 obs_value=26.7
smiles_structure=O=C1NCc2c3c(c4[nH]c5ccc(F)cc5c4c21)Cc1ccccc1-3 obs_value=70.6

Please turn your attention to the following entry.
Noted for "O=C1NCc2c1c1c(c3c2c2ccccc2n3CCO)Cc2ccccc2-1" : its IC50 reads 18.4

* * *

Test system: ChAT activity of basal forebrain cultures
Experiment: Basal Forebrain ChAT Activity Assay
Assay type: cell-based, rat
Settings: Rattus norvegicus, 120 h; 250 nM; read-out: ChAT Activity (% of Control)
Description: Fused pyrrolocarbazoles were tested for the ability to increase ChAT activity of basal forebrain cultures. Methods: The basal forebrain was dissected from rat embryos (day 17 or 18 embryos) and the cells were dissociated with a neutral protease (Dispase™, Collaborative Research). […] ChAT activity was assessed 5 days after plating by using the ChAT assay as described in Example III(A)(1).
assay readout: activity at 0.25 µM (%)
// units = %; emit number, no label

activity at 0.25 µM in this record for "O=C1NCc2c1c1c(c3[nH]c4ccc(C=Cc5ccccc5)cc4c23)Cc2ccccc2-1" : 151

Lab note: "O=C1NCc2c1c1c(c3[nH]c4ccccc4c23)Cc2ccccc2-1" gave activity at 0.25 µM of 137

* * *

target: trkA tyrosine kinase (Homo sapiens); test: trkA Tyrosine Kinase Activity Inhibition Assay (ELISA); assay type: biochemical
assay readout: IC50

Record O=C1NC(=O)c2c1c1c3ccccc3ccc1c1[nH]c3ccccc3c21 [Compound I-15] / trkA tyrosine kinase (Homo sapiens), IC50 recorded as > 1 µM

* * *

Item-by-item account of Spinal Cord ChAT Activity, % of Control, untreated cultures
test system: choline acetyltransferase (ChAT) activity in dissociated rat embryonic spinal cord culture; assay: Spinal Cord ChAT Activity Assay; type: cell-based; conditions: ChAT measured after 48 hours

Reference set, count: 3
compound="O=C1NC(=O)c2c1c1c(c3[nH]c4cc(Cl)ccc4c23)Cc2ccccc2-1 [Compound Ia-1]" obs_value="139 % of Control"
compound="O=C1NC(=O)c2c1c1c(c3[nH]c4ccccc4c23)CCc2ccccc2-1 [Compound I-14]" obs_value="153 % of Control"
compound="O=C1NC(=O)c2c1c1c(c3[nH]c4ccc(F)cc4c23)Cc2ccccc2-1 [Compound I-7]" obs_value="164 % of Control"

Value of Spinal Cord ChAT Activity, % of Control, untreated cultures reported for the compound O=C1NC(=O)c2c1c1c(c3[nH]c4ccccc4c23)CCc2cc(C=Cc3ccccn3)ccc2-1 [Compound Ia-6] is 139 % of Control

Quick note, Spinal Cord ChAT Activity, % of Control, untreated cultures for O=C1NCc2c1c1c(c3c2c2ccccc2n3CCO)Cc2ccccc2-1 [Compound I-29] landed at 154 % of Control

Briefly, Spinal Cord ChAT Activity, % of Control, untreated cultures measured for O=C1NCc2c3c(c4[nH]c5ccc(F)cc5c4c21)Cc1ccccc1-3 [Compound I-23] : 208 % of Control

Record O=C1NCc2c3c(c4[nH]c5ccccc5c4c21)Cc1ccccc1-3 [Compound I-3] , field Spinal Cord ChAT Activity, % of Control, untreated cultures: 174 % of Control

Entry under test: O=C1NCc2c1c1c(c3[nH]c4ccc(F)cc4c23)Cc2ccccc2-1 [Compound I-12] . Its Spinal Cord ChAT Activity, % of Control, untreated cultures was 173 % of Control

Hey, just so you know, these numbers are from patent US5594009A.
